Some compounds, each annotated with its measured Population Tubulin-Different-Phenotype (%).
# Test system: HEK-293T
# experiment description: Multiplex assay against HEK293T;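 as to Population Tubulin-Different-Phenotype (%): share of the cells with healthy nuclei that show this phenotype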
# Format: toxicity, cell-based
# stated conditions: human, 48 h, 1 µM, compound concentration 1 uM, replicate 2
reported property: Population Tubulin-Different-Phenotype (%)

compound	reported result
CCCSc1nc(N[C@@H]2C[C@H]2c2ccc(F)c(F)c2)c2nnn([C@@H]3C[C@H](OCCO)[C@@H](O)[C@H]3O)c2n1	31
CC(C)(C)NC[C@H](O)COc1nsnc1N1CCOCC1	25
CC(C)NC(=O)N1CC[C@H](NC2=Nc3cc(F)ccc3N(CC(F)F)c3ccc(Cl)cc32)C1	25
CC(C)OC(=O)N1CCC(Oc2ncnc3c2cnn3-c2ccc(S(C)(=O)=O)cc2F)CC1	17
Cc1ccc2c(c1)c1c(n2CCc2ccc(C)nc2)CCN(C)C1 [LATREPIRDINE]	40
COC(=O)C1=C(C)NC(C)=C(C(=O)OCCCN2CCC(c3ccccc3)(c3ccccc3)CC2)[C@H]1c1cccc([N+](=O)[O-])c1	99
Cc1cccc(CN2CCN(C(c3ccccc3)c3ccc(Cl)cc3)CC2)c1.Cl.Cl (stereo not given)	20
COc1ccc(-c2ccc3ncc4c(c3c2)n(-c2ccc(N3CCNCC3)c(C(F)(F)F)c2)c(=O)n4C)cn1.O=C(O)/C=C\C(=O)O	85
COc1cc2ncn(-c3cc(OCc4ccccc4C(F)(F)F)c(C(N)=O)s3)c2cc1OC [GW843682X]	67
O=C(c1cc2c(cc1F)OC(c1ccc(F)cc1)(c1ccc(Cl)cc1Cl)O2)N1CCOCC1 (stereo not given)	29

----------
# System: HEK-293T
# experiment description: Multiplex assay against HEK293T
# Type: toxicity, cell-based
# stated conditions: human, 48 h, 1 µM, compound concentration 1 uM, replicate 2
Would you please tag the item True when its Population Healthy Nuclei (%) is 70% or above, and False when it is below?

compound	assigned class
CCc1ccc(OCc2ccccc2C(=O)Nc2ccc3nc(C)cc(N)c3c2)cc1.Cl	False
O=C(c1cc2c(cc1F)OC(c1ccc(F)cc1)(c1ccc(Cl)cc1Cl)O2)N1CCOCC1 (stereo not drawn)	True
CC(C)(C)NC[C@H](O)COc1nsnc1N1CCOCC1	True
CCCSc1nc(N[C@@H]2C[C@H]2c2ccc(F)c(F)c2)c2nnn([C@@H]3C[C@H](OCCO)[C@@H](O)[C@H]3O)c2n1	True
Cc1c[nH]c2nccc(Oc3c(F)cc(Nc4cc(Cl)nc(N)n4)cc3F)c12	False
CN1CCN(Cc2ccc(Nc3ncc(Cl)c(Nc4ccccc4S(=O)(=O)N(C)C)n3)cc2)CC1	True
CC(C)NC(=O)N1CC[C@H](NC2=Nc3cc(F)ccc3N(CC(F)F)c3ccc(Cl)cc32)C1	True

----------
# System: HEK-293T
# experiment description: Multiplex assay against HEK293T
# Assay type: toxicity, cell-based
# stated conditions: human, 24 h, 1 µM, compound concentration 1 uM, replicate 2
Some molecules, each annotated with its measured Population Healthy Nuclei (%).

molecule	Population Healthy Nuclei (%)
O=C(c1cc2c(cc1F)OC(c1ccc(F)cc1)(c1ccc(Cl)cc1Cl)O2)N1CCOCC1 (centres undefined)	60
CC(C)NC(=O)N1CC[C@H](NC2=Nc3cc(F)ccc3N(CC(F)F)c3ccc(Cl)cc32)C1	69
COc1cc(Nc2nccc(-c3cnn4nc(OC)ccc34)n2)cc(C(F)(F)F)c1	65
O=c1cc(N2CCOCC2)oc2c(-c3cccc4c3sc3ccccc34)cccc12	60
Cc1ccc(C)c(Oc2ccncc2C(=O)N2CCN(C3CC3)c3ccccc32)c1	53
Cc1cccc(CN2CCN(C(c3ccccc3)c3ccc(Cl)cc3)CC2)c1.Cl.Cl (centres undefined)	66
C[C@]12CC[C@@H]3c4ccc(O)cc4CC[C@H]3[C@@H]1CC[C@@H]2O	64
Cl.O=C(O)c1cc(-c2ccc(C3CCNCC3)cc2)c2ccc(-c3ccc(C(F)(F)F)cc3)cc2c1	72
CC(C)CC(=O)Nc1[nH]nc2c1CN(C(=O)C1CCN(C)CC1)C2(C)C	72

----------
# Test system: Fibroblast
# experiment description: Multiplex assay against human fibroblast
# Assay type: toxicity, cell-based
# stated conditions: 12 h, 10 µM, compound concentration 10 uM, replicate 1
reported property: Population Hoechst High Intensity Objects (%)

molecule	reported result
O=c1[nH]c2ccccc2n1C1CCN(Cc2ccc(-c3[nH]c4cc5ncnc5cc4nc3-c3ccccc3)cc2)CC1	55
CNC(=O)c1ccc(Nc2ncc(C(F)(F)F)c(NCc3nccnc3N(C)S(C)(=O)=O)n2)cc1 [DEFACTINIB]	8
Cc1ccc(C)c(Oc2ccncc2C(=O)N2CCN(C3CC3)c3ccccc32)c1	10
Cc1c[nH]c2nccc(Oc3c(F)cc(Nc4cc(Cl)nc(N)n4)cc3F)c12 [BAY-549]	10
C[C@]12CC[C@@H]3c4ccc(O)cc4CC[C@H]3[C@@H]1CC[C@@H]2O [ESTRADIOL]	14
Cc1cccc(CN2CCN(C(c3ccccc3)c3ccc(Cl)cc3)CC2)c1.Cl.Cl (stereo not given)	11
O=c1cc(N2CCOCC2)oc2c(-c3cccc4c3sc3ccccc34)cccc12	13
CCc1nn(CCCN2CCN(c3cccc(Cl)c3)CC2)c(=O)n1CCOc1ccccc1.Cl [NEFAZODONE HYDROCHLORIDE]	10
CC(C)NC(=O)N1CC[C@H](NC2=Nc3cc(F)ccc3N(CC(F)F)c3ccc(Cl)cc32)C1	13
Cc1ccc2c(c1)c1c(n2CCc2ccc(C)nc2)CCN(C)C1 [LATREPIRDINE]	15

----------
# Tested on: HEK-293T
# experiment description: Multiplex assay against HEK293T
# Format: toxicity, cell-based
# stated conditions: human, 12 h, 1 µM, compound concentration 1 uM, replicate 2
reported property: Population Normal (%)

molecule	reported result
CNC(=O)Nc1ccc2c(c1)[C@@]1(CC2)OC(=O)N(CC(=O)N(Cc2ccc(F)cc2)[C@@H](C)C(F)(F)F)C1=O	97
CC(C)NC(=O)N1CC[C@H](NC2=Nc3cc(F)ccc3N(CC(F)F)c3ccc(Cl)cc32)C1	96
O=c1cc(N2CCOCC2)oc2c(-c3cccc4c3sc3ccccc34)cccc12	95
C[C@]12CC[C@@H]3c4ccc(O)cc4CC[C@H]3[C@@H]1CC[C@@H]2O	96
Cc1ccc2c(c1)c1c(n2CCc2ccc(C)nc2)CCN(C)C1 [LATREPIRDINE]	97
Cc1nc(N2CC[C@H](O)C2)ncc1-c1cc(C(F)(F)F)cc2[nH]ncc12	97
CCOC(=O)Nc1cc(-c2ccc(C)c(NS(C)(=O)=O)c2)nn2c(C)nnc12	97
CC(C)(C)NC[C@H](O)COc1nsnc1N1CCOCC1	96
CCc1nn(CCCN2CCN(c3cccc(Cl)c3)CC2)c(=O)n1CCOc1ccccc1.Cl [NEFAZODONE HYDROCHLORIDE]	96
CC1=C(C(=O)Nc2cc3cn[nH]c3cc2F)C(c2ccc(C(F)(F)F)cc2)CC(=O)N1 (configuration not stated)	97
C=CC(=O)Nc1ccc2[nH]c(=O)n(C3CCN(Cc4ccc(-c5nc6cc[nH]c(=O)c6cc5-c5ccccc5)cc4)CC3)c2c1	96
CN1CCN(Cc2ccc(Nc3ncc(Cl)c(Nc4ccccc4S(=O)(=O)N(C)C)n3)cc2)CC1	97
COc1cc2ncn(-c3cc(OCc4ccccc4C(F)(F)F)c(C(N)=O)s3)c2cc1OC [GW843682X]	97
Cl.O=C(O)c1cc(-c2ccc(C3CCNCC3)cc2)c2ccc(-c3ccc(C(F)(F)F)cc3)cc2c1	93
CNC(=O)c1ccc(Nc2ncc(C(F)(F)F)c(NCc3nccnc3N(C)S(C)(=O)=O)n2)cc1	96
COc1ccccc1CN[C@H]1C2CCN(CC2)[C@H]1C(c1ccccc1)c1ccccc1	96
COC(=O)C1=C(C)NC(C)=C(C(=O)OCCCN2CCC(c3ccccc3)(c3ccccc3)CC2)[C@H]1c1cccc([N+](=O)[O-])c1	94

----------
# Tested on: U2OS
# experiment description: Multiplex assay against U2OS
# Type: toxicity, cell-based
# stated conditions: human, 24 h, 10 µM, compound concentration 10 uM, replicate 1

compound	Population Apoptotic (%)
COC(=O)C1=C(C)NC(C)=C(C(=O)OCCCN2CCC(c3ccccc3)(c3ccccc3)CC2)[C@H]1c1cccc([N+](=O)[O-])c1 [NIGULDIPINE]	78
Cc1ccc2c(c1)c1c(n2CCc2ccc(C)nc2)CCN(C)C1 [LATREPIRDINE]	71
CCc1nn(CCCN2CCN(c3cccc(Cl)c3)CC2)c(=O)n1CCOc1ccccc1.Cl [NEFAZODONE HYDROCHLORIDE]	82
CC(C)CC(=O)Nc1[nH]nc2c1CN(C(=O)C1CCN(C)CC1)C2(C)C [PHA-793887]	72

----------
# Tested on: U2OS
# experiment description: Incucyte cell viability with U2OS; also: filed as whole numbers so only -1 and 0 and 1 occur
# Format: toxicity, cell-based
# stated conditions: human, 24 h, 10 µM, compound concentration 10 uM, replicate number 1, timepoint 24 hours
Some compounds, each annotated with its measured Growth Rate.

smiles record	measured on	Growth Rate
CC(C)Oc1ccccc1C(=O)Nc1ccccc1C(=O)Nc1cccc(S(=O)(=O)C(F)(F)F)c1	U2OS	1
CN1C[C@H](Nc2cnn(C)c(=O)c2Br)C[C@H](c2ccccc2)C1	U2OS	1
C[C@H](NC(=O)c1cnc2n1[C@](C)(Cc1ccc(C#N)cc1)C(=O)N2c1cc(Cl)c(F)c(Cl)c1)C(=O)NC1(c2ccccn2)CC1	U2OS	1
Cc1c[nH]c2nccc(Oc3c(F)cc(Nc4cc(Cl)nc(N)n4)cc3F)c12	U2OS	0
